outcome measure: melting point

In [3]: df
Out[3]:
                    compound  outcome_measure  endpoint_result
0  O=C=Nc1ccc(OCc2ccccc2)cc1    melting point      61 to 63 °C

Dear colleague, I am looking for the recorded melting point of the following compound: S=C(Nc1ccccc1)C(=S)Nc1ccccc1 134 to 135 °C

Dear colleague, I am looking for the recorded melting point of the following compound: O=C(O)Cc1c(F)cccc1F 101 °C

Dear colleague, I am looking for the recorded melting point of the following compound: CCCOC(=O)C1=C(C)NC(=O)NC1c1ccc2c(c1)OCO2 (stereo not given) 184 to 185 °C

Dear colleague, I am looking for the recorded melting point of the following compound: O=C(C=Cc1ccc(-c2ccccc2[N+](=O)[O-])o1)c1ccco1 168 to 169 °C
